Below: molecules with Ki recorded for Vasopressin V1b receptor (Homo sapiens, UniProt P47901) in separate published works.

Example molecules with recorded Ki:
{"columns": ["Molecule", "Readout value"],
 "data": [
  ["CCN1CCN(Cc2ccc(C3(N4CCC[C@H]4c4ncco4)C(=O)N(S(=O)(=O)c4ccc(OC)cc4)c4ccc(C#N)cc43)c(OC)c2)CC1 (stereo partly drawn)", "< 10 nM"],
  ["COc1ccc(S(=O)(=O)n2c(=O)n(C(C(=O)N3CCN(C4CCN(C)CC4)CC3)c3cccc(OC)c3)c3cc(Cl)ccc32)cc1 (stereo not drawn)", "100 to 500 nM"],
  ["COc1ccc(S(=O)(=O)N2C(=O)C(c3cc(CN(C)C)ccc3OC)(N3CCN(c4ccncc4)CC3)c3cc(Cl)ccc32)c(OC)c1 (stereo not drawn)", "50 to 500 nM"],
  ["CCN1CCN(Cc2ccc(C3(N4CCC[C@H]4c4ncco4)C(=O)N(S(=O)(=O)c4ccc(C#N)cc4)c4ccc(Cl)cc43)c(OC)c2)CC1 (stereo partly drawn)", "< 10 nM"],
  ["COc1ccc(S(=O)(=O)n2c(=O)n(C(C(=O)N3CCN(c4ccncc4)CC3)c3ccccc3)c3cc(C#N)ccc32)c(OC)c1 (stereo not drawn)", "500 to 10000 nM"]
]}

Next:
Entry CCN(CC)CCN(C)C(=O)C(c1ccccc1)n1c(=O)n(S(=O)(=O)c2ccc(OC)cc2)c2ccc(Cl)cc21 (stereo not drawn) , tested on Vasopressin V1b receptor (Homo sapiens, UniProt P47901), has a reported Ki of 100 to 500 nM

###

// cross-source set; read-out = pKi; system = Vasopressin V1b receptor (Homo sapiens, UniProt P47901)
pKi: −log10 of the molar value.

// below: answered compounds
{"columns": ["Compound", "Tgt", "pKi"],
 "data": [
  ["COc1ccc(S(=O)(=O)N2C(=O)[C@@](NC(=O)N3CC(N4CCC(N5CCCCC5)CC4)C3)(c3cccnc3OC)c3cc(C#N)ccc32)c(OC)c1", "Vasopressin V1b receptor (Homo sapiens, UniProt P47901)", "> 9.00"],
  ["COc1nc(Cl)ccc1C1(N2CCN(c3ccncc3)CC2)C(=O)N(S(=O)(=O)c2cccc3cccnc23)c2ccc(Cl)cc21 (racemic)", "Vasopressin V1b receptor (Homo sapiens, UniProt P47901)", "> 8.00"]
]}

Response field pKi (Vasopressin V1b receptor (Homo sapiens, UniProt P47901)) for item COCCN(C)Cc1ccc(C2(N3CCC[C@H]3c3ncco3)C(=O)N(S(=O)(=O)c3ccc(OC)cc3)c3ccc(Cl)cc32)c(OC)c1 (stereo partly drawn) : 7.00 to 8.00

###

Assay read-out pKi on Vasopressin V1b receptor (Homo sapiens); records merged from the literature.
pKi: −log10 of the molar value.

Consider the reported pKi for these compounds:
{"columns": ["Compound", "Result type", "Readout value"],
 "data": [
  ["CCN1CCN(c2ccc(NC3(c4cccnc4OCC(F)F)C(=O)N(S(=O)(=O)c4ccc(OC)cc4)c4ccc(C#N)cc43)cc2)CC1 (stereo not drawn)", "pKi", "7.00 to 8.00"],
  ["COc1ccc(S(=O)(=O)n2c(=O)n(C(C(=O)N3CC(N4CCNCC4)C3)c3ccccc3)c3cc(Cl)ccc32)cc1 (stereo not drawn)", "pKi", "6.30 to 7.00"],
  ["CCOc1ccccc1C1(N2CCN(c3ccncc3)CC2)C(=O)N(S(=O)(=O)c2ccc(C#N)cc2)c2ccc(C#N)cc21 (stereo not drawn)", "pKi", "6.30 to 7.30"],
  ["CCOc1ncccc1C1(NC(=O)N2CCN(C3CCN(CC)CC3)CC2)C(=O)N(S(=O)(=O)c2ccccc2)c2cc(F)c(Cl)cc21 (stereo not drawn)", "pKi", "8.00 to 9.00"],
  ["COc1cc(F)ccc1S(=O)(=O)N1C(=O)[C@@](NC(=O)N2CC(N3CCC(N(C)C4COC4)CC3)C2)(c2cccnc2OC)c2cc(C#N)ccc21", "pKi", "8.00 to 9.00"]
]}

Looking up COc1ccc(S(=O)(=O)N2C(=O)C(c3ccc(CN4CCCC4)cc3OC)(N3CCC[C@H]3c3ncco3)c3cc(Cl)ccc32)cc1 (stereo partly drawn) , I found its pKi recorded as > 8.00

Value of pKi reported for the compound COc1ccc(S(=O)(=O)N2C(=O)C(c3cc(CN4CCN(CCO)CC4)ccc3OC)(N3C[C@H](O)C[C@H]3c3ncco3)c3cc(C#N)ccc32)cc1 (stereo partly drawn) is 7.00 to 8.00

# pKi (compound: COc1ccc(S(=O)(=O)N2C(=O)C(c3cc(CNCCO)ccc3OC)(N3CCC[C@H]3c3ncco3)c3ccc(Cl)cc32)cc1 (stereo partly drawn) ) is 6.00 to 7.00

Note to self: pKi recorded for CCOc1ncccc1C1(OC(=O)N2CCN(C3CCN(C)CC3)CC2)C(=O)N(S(=O)(=O)c2ccc(OC)cc2OC)c2cc(F)c(Cl)cc21 (stereo not drawn) was > 9.00

// sample CCCNCc1ccc(OC)c(C2(N3CCC[C@H]3c3ncco3)C(=O)N(S(=O)(=O)c3ccc(OC)cc3)c3ccc(C#N)cc32)c1 (stereo partly drawn) , its pKi was > 8.00

Sure, the documented pKi for CCOc1nc(Cl)ccc1C1(N2CCN(c3ccncc3)CC2)C(=O)N(S(=O)(=O)c2cccc3cccnc23)c2ccc(C#N)cc21 (racemic) is > 8.00

Field pKi (entry CCOc1ccc(CC)cc1C1(N2CCN(c3ccnc(C)c3)CC2)C(=O)N(S(=O)(=O)c2ccc(OC)c3cccnc23)c2ccc(C#N)cc21 (racemic) ) reads > 8.00

# pKi (compound: COc1ccc(S(=O)(=O)N2C(=O)C(NCc3ncco3)(c3cc(CN4CCCC4)ccc3OC)c3cc(Cl)ccc32)cc1 (stereo not drawn) ) is 7.00 to 8.00

Noted for COc1ccc(S(=O)(=O)n2c(=O)n(C(C(=O)N(C)CCN(C)C)c3ccccc3)c3cc(Cl)ccc32)cc1 (stereo not drawn) : its pKi reads > 7.00

// pKi value for `CCOc1ncccc1[C@]1(NC(=O)N2CC(N3CCC(N4CCOCC4)CC3)C2)C(=O)N(S(=O)(=O)c2ccc(OC)cc2OC)c2ccc(C#N)cc21` : > 9.00

Per the record, CCOc1cc(OC)ccc1C1(N2CCN(c3ccnc(C)c3)CC2)C(=O)N(S(=O)(=O)c2ccc(OC)cn2)c2ccc(C#N)cc21 (racemic) has pKi of 7.30 to 8.00

// pKi lookup, compound = COc1ccc(S(=O)(=O)n2c(=O)n(C(Cc3ccccc3)C(=O)N3CCN(c4ccncc4)CC3)c3cc(Cl)ccc32)c(OC)c1 (stereo not drawn) , result: > 7.00

response.value for `COc1ccc(S(=O)(=O)N2C(=O)[C@@](NC(=O)N3CC(N4CCC(N(C)C5COC5)CC4)C3)(c3cccnc3OC)c3cc(C#N)ccc32)c(OC)c1` (field: pKi) = 8.00 to 9.00

Quick note, pKi for COc1ccc(S(=O)(=O)N2C(=O)C(c3cc(CN4CCN(C)CC4)ccc3OC)(N3CCC[C@H]3c3ncco3)c3cc(Cl)ccc32)cc1 (single isomer, unassigned) landed at > 8.00

# pKi of `COc1ccc(S(=O)(=O)N2C(=O)[C@@](NC(=O)N3CC(N4CCC(N(C)C5CCOCC5)CC4)C3)(c3cccnc3OC)c3cc(C#N)ccc32)c(OC)c1` = > 9.00

Record CCOc1ccc(OC)cc1C1(N2CC3(CN(C4CCN(C)CC4)C3)C2)C(=O)N(S(=O)(=O)c2ccc(OC)cn2)c2cc(C#N)ccc21 (racemic) . Reported pKi: 8.00 to 9.00

Per the records, this compound ( CCN(CC)C(=O)C(c1ccccc1)n1c(=O)n(S(=O)(=O)c2ccc(OC)cc2)c2ccc(Cl)cc21 (stereo not drawn) ) has pKi equal to 5.00 to 6.30

pKi reading for COc1ccc(S(=O)(=O)N2C(=O)C(c3cc(OC)ccc3OC)(N3CC4(CN(C5CCN(C)CC5)C4)C3)c3cc(C#N)ccc32)nc1 (racemic) : > 9.00

Lab note: COc1ccc(S(=O)(=O)N2C(=O)C(c3ccc(CN4CCN(CCO)CC4)cc3OC)(N3CCC[C@H]3c3ncco3)c3cc(Cl)c(F)cc32)cc1 (stereo partly drawn) gave pKi of > 8.00

###

Literature roundup of UniProt P47901 data, read-out Ki.

Worked cases, Ki given:
{"columns": ["Compound", "Tgt", "Result type", "Readout value"],
 "data": [
  ["CCOc1ccc(OC)cc1C1(N2CCN(c3ccncc3)CC2)C(=O)N(S(=O)(=O)c2ccc(OC)cn2)c2ccc(C#N)cc21 (racemic)", "UniProt P47901", "Ki", "< 10 nM"],
  ["CCCNCc1ccc(OC)c(C2(N3CCC[C@H]3c3ncco3)C(=O)N(S(=O)(=O)c3ccc(OC)cc3)c3cc(Cl)c(Cl)cc32)c1 (stereo partly drawn)", "UniProt P47901", "Ki", "10 to 100 nM"]
]}

Now examine the next entry.
`COc1ccc(S(=O)(=O)n2c(=O)n(CC(=O)N3CCN(c4ccncc4)CC3)c3cc(Cl)ccc32)cc1` has a reported Ki of 100 to 500 nM
